biological target: human S1P1 receptors (Homo sapiens (Human)); experiment: Human S1P1 Receptor Calcium FLIPR Antagonist Assay (HeLa Gα16 S1P1); conditions: relative antagonism vs probing agonist GNF-AC-1 at EC80, HeLa-S1P1/Gα16 cells
Sequence (P21453 whole entry): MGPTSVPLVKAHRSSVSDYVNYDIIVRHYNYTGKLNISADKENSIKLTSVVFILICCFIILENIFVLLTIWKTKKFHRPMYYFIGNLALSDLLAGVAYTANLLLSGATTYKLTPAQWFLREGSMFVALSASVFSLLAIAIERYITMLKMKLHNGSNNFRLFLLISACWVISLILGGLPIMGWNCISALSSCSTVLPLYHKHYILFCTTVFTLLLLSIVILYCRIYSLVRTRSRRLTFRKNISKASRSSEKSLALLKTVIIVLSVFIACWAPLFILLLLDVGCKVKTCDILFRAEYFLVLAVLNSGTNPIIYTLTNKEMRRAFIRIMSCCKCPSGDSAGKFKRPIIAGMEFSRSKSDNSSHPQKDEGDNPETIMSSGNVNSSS
pIC50: −log10 of the molar value.
propertyName: pIC50

CC[C@@H](Nc1cc(CNCCC(=O)O)c(Cl)cn1)c1ccc(Cl)c(C)c1 [Example 58]; 10.00
CCC(Nc1cccc(CN2CC(C(=O)O)C2)c1)c1ccc(Cl)c(C)c1 (centres unmarked) [Example 2]; 8.46
CC[C@@H](Nc1ccc(C)c(CN2CC(C)(C(=O)O)C2)c1)c1ccc(Cl)c(C)c1 [Example 28]; 9.10
CC[C@@H](Nc1cccc(CN2CC(C(=O)O)C2)c1)c1ccc2c(Cl)cccc2c1 [Example 20]; 8.70
Cc1ccc(N[C@H](C)c2cc(C)c(Cl)c(C)c2)cc1CNCCC(=O)O [Example 47]; 8.80
CC[C@@H](Nc1cc(CN2CC(C(=O)O)C2)c(F)cn1)c1ccc(Cl)c(C)c1 [Example 54]; 9.05
CCc1ccc(N[C@@H](c2ccc(Cl)c(C)c2)C(F)(F)F)cc1CN1CC[C@@H](C(=O)O)C1 [Example 34]; 9.10
CC[C@@H](Nc1ccc(Cl)c(CN2CC(C(=O)O)C2)c1)c1cc(C)c(Cl)c(C)c1 [Example 61]; 8.80

I: CC[C@@H](Nc1ccc(C)c(CN2CC(C(=O)O)C2)c1)c1cc(C)c(Cl)c(C)c1 [Example 41]
II: CC[C@@H](Nc1ccnc(CN2CC(C(=O)O)C2)c1)c1ccc(Cl)c(C)c1 [Example 78]
III: CC[C@@H](Nc1cc(CN2CCC(C)(C(=O)O)C2)c(Cl)cn1)c1ccc(Cl)c(C)c1 (some centres unmarked) [Example 57]
IV: CC[C@@H](Nc1cccc(CN2CC(C(=O)O)C2)n1)c1ccc(Cl)c(C)c1 [Example 74]
Request: Exam item: list the entries in increasing order of pIC50. Record the ranking as a list of labels in the requested order.
Response: IV, III, I, II

I: Cc1cc([C@H](Nc2ccc(C)c(CN3CC(C(=O)O)C3)c2C)C(F)(F)F)ccc1Cl [Example 31]
II: CCC(Nc1cc(C)cc(CN2CC[C@@H](C(=O)O)C2)c1)c1ccc(Cl)c(C)c1 (some centres unmarked) [Example 15]
Request: Hi! Which is lower in terms of pIC50, the first one I or the second one II ? Mark your selection by writing its label.
Response: II
(II: 8.64, I: 9.00)

A: Cc1cc([C@H](Nc2ccc(Cl)c(CN3CC(C(=O)O)C3)c2)C(F)(F)F)ccc1Cl [Example 68]
B: CC[C@@H](Nc1ccc(C)c(CN(C)CCC(=O)O)c1)c1cc(C)c(Cl)c(C)c1 [Example 82]
Request: Sorting by pIC50 in descending order, would A or B appear first? Mark your selection by writing its label.
Response: A
